assay: Plasma concentration in male C57BL/6 mouse at 2 mg/kg, iv administered as single dose measured at 0.35 hrs measured by LC/MS-MS analysis; type: ADME, organism-based
experimental.endpoint: concentration at 0.35 h (ng/mL)
// units = ng/mL; emit number, no label

// query I have this molecule here, "Cl.[2H]C1([2H])Oc2ccc(Nc3nc(-c4c(C)nc5ccccn45)cs3)cc2O1" , and I need its recorded concentration at 0.35 h.
// result 44.8

----------
assay: Brain concentration in male C57BL/6 mouse at 10 mg/kg, po administered as single dose measured at 3 hrs measured by LC/MS-MS analysis; assay type: ADME, organism-based; conditions: read-out: Drug uptake
Listing of recorded concentration at 3 h by entry.
// units = ng/g; emit number, no label

substance_smiles=Cl.[2H]C1([2H])Oc2ccc(Nc3nc(-c4c(C)nc5ccccn45)cs3)cc2O1 experimental_endpoint="concentration at 3 h" measure_unit=ng/g value=20.5

Now examine the next entry.
// query I have this compound here, "Cc1nc2ccccn2c1-c1csc(Nc2ccc3c(c2)OC(F)(F)O3)n1.Cl" , and I need its recorded concentration at 3 h.
// result 5.78

----------
experiment: Brain concentration in male C57BL/6 mouse at 10 mg/kg, ip administered as single dose measured at 12 hrs measured by LC/MS-MS analysis; type: ADME, organism-based; details: read-out: Drug uptake
experimental.endpoint: concentration at 12 h

// query I have this molecule here, "Cc1nc2ccccn2c1-c1csc(Nc2ccc3c(c2)OC(F)(F)O3)n1.Cl" , and I need its recorded concentration at 12 h.
// result 159 ng/g

----------
assay: Brain concentration in male C57BL/6 mouse at 10 mg/kg, po administered as single dose measured at 1 hr measured by LC/MS-MS analysis; assay type: ADME, organism-based; settings: read-out: Drug uptake
experimental.endpoint: concentration at 1 h (ng/g)
// units = ng/g; emit number, no label

// query I have this compound here, "Cl.[2H]C1([2H])Oc2ccc(Nc3nc(-c4c(C)nc5ccccn45)cs3)cc2O1" , and I need its recorded concentration at 1 h.
// result 51.9

----------
assay: Plasma concentration in male C57BL/6 mouse at 10 mg/kg, po administered as single dose measured at 1 hr measured by LC/MS-MS analysis; assay type: ADME, organism-based
experimental.endpoint: concentration at 1 h (ng/mL)
// units = ng/mL; emit number, no label

substance_smiles=Cl.[2H]C1([2H])Oc2ccc(Nc3nc(-c4c(C)nc5ccccn45)cs3)cc2O1 experimental_endpoint="concentration at 1 h" value=109

// query I have this molecule here, "Cc1nc2ccccn2c1-c1csc(Nc2ccc3c(c2)OC(F)(F)O3)n1.Cl" , and I need its recorded concentration at 1 h.
// result 29.3

----------
assay: Ratio of drug level in male C57BL/6 mouse brain to plasma at 10 mg/kg, ip administered as single dose measured at 1 hr measured by LC/MS-MS analysis; format: ADME, organism-based; conditions: read-out: BPR
experimental.endpoint: Kp at 1 h
Could you respond with only the numeric value?

// query I have this compound here, "Cc1nc2ccccn2c1-c1csc(Nc2ccc3c(c2)OC(F)(F)O3)n1.Cl" , and I need its recorded Kp at 1 h.
// result 2.78

----------
test: Antiproliferative activity against human Glioblastoma cell after 72 hrs by MTT assay; assay type: functional, cell-based; conditions: Glioblastoma cell line
experimental.endpoint: IC50 (nM)
// units = nM; emit number, no label

// query I have this compound here, "COc1ccc(Nc2nc(-c3c(C)nc4ccccn34)cs2)cc1" , and I need its recorded IC50.
// result 10

All values here come from ChEMBL document CHEMBL5052840.
